- Target Of Assay: recombinant human NPY Y2 receptors (Homo sapiens)
- Construct: expressed in transfected cells; host or cells: CHO-C4 cells (membrane preparation)
- Test Summary: Scintillation proximity [35S]GTPγS binding assay (inhibition of 0.5 nM NPY-stimulated [35S]GTPγS binding)
- Format: biochemical
- Assay Conditions: 10 μM compound, CHO-C4 membranes, read-out: [%] inhibiton at 10 μM
- Method: Preparation of Membranes: CHO—C4 cells expressing recombinant human NPY Y2 receptors were used to prepare membranes for the GTPγS assay. Cells were grown to 80-95% confluency on 15-cm (225 cm^2) tissue culture plates. […] Scintillation proximity [^35S]GTPγS binding assay: Frozen membranes from CHO—C4 cells expressing recombinant human NPY Y2 receptors (2 mg for four 96-well plates) were thawed on ice. […] After 60 min the plates were counted in a TopCount (Canberra). […]
Readout Kind: inhibition at 10 µM (%)

{"Compound": "Cc1ccc(C2(c3ccccc3)NC(=O)N(CC(=O)c3ccc(NC(=O)Cc4c(C)noc4C)cc3)C2=O)cc1 (racemic) [Example 42]", "Target Of Assay": "recombinant human NPY Y2 receptors (Homo sapiens)", "Unit Name": "%", "inhibition at 10 µM": 99}
{"Compound": "Cc1ccc(C2(c3ccccc3)NC(=O)N(CC(=O)c3ccc(NC(=O)Nc4ccccc4F)cc3)C2=O)cc1 (racemic) [Example 39]", "Target Of Assay": "recombinant human NPY Y2 receptors (Homo sapiens)", "Unit Name": "%", "inhibition at 10 µM": 44}
{"Compound": "CCC[C@@]1(c2ccccc2)NC(=O)N(CC(=O)c2ccc(NC(=O)Nc3c(C)noc3C)cc2F)C1=O [Example 33]", "Target Of Assay": "recombinant human NPY Y2 receptors (Homo sapiens)", "Unit Name": "%", "inhibition at 10 µM": 95}
{"Compound": "COc1ccccc1CC(=O)Nc1ccc(C(=O)CN2C(=O)NC(c3ccccc3)(c3ccc(C)cc3)C2=O)cc1 (racemic) [Example 40]", "Target Of Assay": "recombinant human NPY Y2 receptors (Homo sapiens)", "Unit Name": "%", "inhibition at 10 µM": 70}
{"Compound": "CC(C)CC(=O)Nc1ccc(C(=O)CN2C(=O)NC(c3ccccc3)(c3ccccc3)C2=O)c(F)c1 [Example 9]", "Target Of Assay": "recombinant human NPY Y2 receptors (Homo sapiens)", "Unit Name": "%", "inhibition at 10 µM": 83}
{"Compound": "CCC1(c2ccccc2)NC(=O)N(CC(=O)c2ccc(NC(=O)CC(C)C)cc2F)C1=O (racemic) [Example 13]", "Target Of Assay": "recombinant human NPY Y2 receptors (Homo sapiens)", "Unit Name": "%", "inhibition at 10 µM": 78}

[1] CCCC1(c2ccccc2)NC(=O)N(CC(=O)c2ccc(NC(=O)C3CCOC3)cc2)C1=O (stereo not drawn) [Example 22]
[2] CCC(=O)Nc1ccc(C(=O)CN2C(=O)NC(c3ccc(F)cc3)(c3ccc(F)cc3)C2=O)cc1 [Example 12]
Qu. Would you mind telling me which has the lower recorded inhibition at 10 µM between 1 and 2 ? State your choice using its label.
Ans. 2

[A] CCCC1(c2ccccc2)NC(=O)N(CC(=O)c2ccc(NC(=O)C(CC)CC)cc2)C1=O (racemic) [Example 24]
[B] CCCC1(c2ccccc2)NC(=O)N(CC(=O)c2ccc(NC(=O)CC(C)C)cc2F)C1=O (racemic) [Example 5]
Qu. From the recorded data, which exceeds the other in inhibition at 10 µM: A or B ? State your choice using its label.
Ans. A
(A: 96%, B: 63%)

[A] CCC(CC)C(=O)Nc1ccc(C(=O)CN2C(=O)NC(c3ccccc3)(c3ccccc3)C2=O)c(F)c1 [Example 34]
[B] CCCC1(c2ccccc2)NC(=O)N(CC(=O)c2ccc(NC(=O)C3CCCN3)cc2)C1=O (stereo not drawn) [Example 23]
Qu. Would you mind telling me which has the lower recorded inhibition at 10 µM between A and B ? State your choice using its label.
Ans. B

[A] CCC1(c2ccccc2)NC(=O)N(CC(=O)c2ccc(NC(=O)Nc3c(C)noc3C)cc2)C1=O (racemic) [Example 2]
[B] Cc1cnn(C)c1CC(=O)Nc1ccc(C(=O)CN2C(=O)NC(c3ccccc3)(c3ccccc3)C2=O)cc1 [Example 49]
Qu. From the recorded data, which exceeds the other in inhibition at 10 µM: A or B ? State your choice using its label.
Ans. A

* * *

- Target Of Assay: recombinant human NPY Y2 receptors (Homo sapiens, UniProt P49146)
- Construct: expressed in transfected cells; host or cells: CHO-C4 cells (membrane preparation)
- Test Summary: Scintillation proximity [35S]GTPγS binding assay (inhibition of 0.5 nM NPY-stimulated [35S]GTPγS binding)
- Format: biochemical
- Assay Conditions: 10 μM compound, CHO-C4 membranes, read-out: [%] inhibiton at 10 μM
Readout Kind: inhibition at 10 µM (%)

{"Compound": "COc1ccc(F)cc1CC(=O)Nc1ccc(C(=O)CN2C(=O)NC(c3ccccc3)(c3ccccc3)C2=O)cc1", "inhibition at 10 µM / %": 80}

[P] CCC1(c2ccccc2)NC(=O)N(Cc2ccc(NC(=O)Nc3c(C)noc3C)cc2)C1=O (racemic)
[Q] CCCC1(c2ccccc2)NC(=O)N(CC(=O)c2ccc(NC(=O)Cc3c(C)noc3C)cc2)C1=O (racemic)
Qu. Would you mind telling me which has the lower recorded inhibition at 10 µM between P and Q ? State your choice using its label.
Ans. P
(P: 32%, Q: 97%)

* * *

- Target Of Assay: recombinant human NPY Y2 receptors (Homo sapiens)
- Construct: expressed in transfected cells; host or cells: CHO-C4 cells (membrane preparation)
- Sequence (P49146 1-381): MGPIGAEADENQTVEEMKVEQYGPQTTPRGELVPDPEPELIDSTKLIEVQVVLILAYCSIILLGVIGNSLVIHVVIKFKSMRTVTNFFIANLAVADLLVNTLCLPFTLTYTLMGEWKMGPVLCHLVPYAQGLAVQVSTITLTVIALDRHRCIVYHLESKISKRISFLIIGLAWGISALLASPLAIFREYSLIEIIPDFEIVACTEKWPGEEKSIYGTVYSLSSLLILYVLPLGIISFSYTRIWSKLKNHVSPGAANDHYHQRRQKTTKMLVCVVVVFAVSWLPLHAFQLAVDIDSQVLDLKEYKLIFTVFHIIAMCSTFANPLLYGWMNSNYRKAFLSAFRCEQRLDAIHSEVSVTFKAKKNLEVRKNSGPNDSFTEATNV
- Test Summary: Scintillation proximity [35S]GTPγS binding assay (inhibition of 0.5 nM NPY-stimulated [35S]GTPγS binding)
- Format: biochemical
- Assay Conditions: 10 μM compound, CHO-C4 membranes
Readout Kind: [%] inhibiton at 10 μM (%)

Guide cases for [%] inhibiton at 10 μM, answers given:
{"Compound": "CCCC1(c2ccccc2)NC(=O)N(CC(=O)c2ccc(NC(=O)Cc3c(C)noc3C)cc2)C1=O (single isomer, unassigned; (-))", "Target Of Assay": "recombinant human NPY Y2 receptors (Homo sapiens)", "Unit Name": "%", "[%] inhibiton at 10 μM": 99}
{"Compound": "CCCC1(c2ccccc2)NC(=O)N(CC(=O)c2ccc(NC(=O)C(CC)CC)cc2)C1=O (single isomer, unassigned; (-)) [Example 31]", "Target Of Assay": "recombinant human NPY Y2 receptors (Homo sapiens)", "Unit Name": "%", "[%] inhibiton at 10 μM": 97}
{"Compound": "Cc1noc(C)c1NC(=O)Nc1ccc(C(=O)CN2C(=O)NC(c3ccccc3)(c3ccccc3)C2=O)c(F)c1", "Target Of Assay": "recombinant human NPY Y2 receptors (Homo sapiens)", "Unit Name": "%", "[%] inhibiton at 10 μM": 98}
{"Compound": "CCCC1(c2ccccc2)NC(=O)N(CC(=O)c2ccc(NC(=O)C(CC)CC)cc2)C1=O (single isomer, unassigned; (+)) [Example 32]", "Target Of Assay": "recombinant human NPY Y2 receptors (Homo sapiens)", "Unit Name": "%", "[%] inhibiton at 10 μM": 90}

[P] Cc1noc(C)c1CC(=O)Nc1ccc(C(=O)CN2C(=O)NC(c3ccccc3)(c3ccccc3)C2=O)cc1
[Q] COc1ccc(CC(=O)Nc2ccc(C(=O)CN3C(=O)NC(c4ccccc4)(c4ccc(C)cc4)C3=O)cc2)c(OC)c1 (racemic)
Qu. Would you mind telling me which has the lower recorded [%] inhibiton at 10 μM between P and Q ? State your choice using its label.
Ans. Q
(Q: 60%, P: 96%)
